# Tested on: itchgrass
# ASSAY_INFO: Test E pre-/postemergence herbicide test
# Assay type: in vivo, Rottboellia cochinchinensis
# ASSAY_CONTEXT: Preemergence; 500 g ai/ha; scale 0 (no effect) to 100 (complete control)
The compounds listed here are annotated with their Plant response rating, Itchgrass.

>  <SMILES_INPUT>
CCc1nn(C(C)(C)C)nc1C(=O)Nc1cccc(C(=O)N(C)CC)c1

>  <Plant response rating, Itchgrass>
85

$$$$
>  <SMILES_INPUT>
CCc1nn(C(C)(C)C)nc1C(=O)Nc1cccc(C(=S)N(C)C)c1

>  <Plant response rating, Itchgrass>
80

$$$$
>  <SMILES_INPUT>
CCNC(=O)c1ccc(F)c(NC(=O)c2cc(C(C)(C)C)nn2CC)c1

>  <Plant response rating, Itchgrass>
95

$$$$
>  <SMILES_INPUT>
CCc1nn(C(C)(C)C)cc1C(=O)Nc1cc(C(=O)N(C)C)ccn1

>  <Plant response rating, Itchgrass>
100

$$$$
